Hello, the source for this data is patent US20260365677A1, in case you need it.

// reported Solubility per item
experiment: Exploratory water solubility in 10 mM Tris-HCl buffer, pH 7.4; type: physicochemical; conditions: aqueous buffer (10 mM Tris-HCl), 20 °C

{"columns": ["molecule", "Solubility"],
 "data": [
  ["CCCCOc1ccc(C[C@H]2CN(CC(=O)[O-])CCN(CC(=O)[O-])CCN(CC(=O)O)CCN2CC(=O)[O-])cc1.[Gd+3] (single isomer, unassigned; stereoisomer 2) [Example 13]", ">43 mM"],
  ["CCOCCOCCOc1ccc(C[C@H]2CN(CC(=O)[O-])CCN(CC(=O)[O-])CCN(CC(=O)O)CCN2CC(=O)[O-])cc1.[Gd+3] [Example 2]", ">55 mM"],
  ["COCCOCCOCCOc1ccc(C[C@@H]2CN(CC(=O)[O-])CCN(CC(=O)[O-])CCN(CC(=O)O)CCN2CC(=O)[O-])cc1.[Gd+3] [Example 3]", ">166 mM"],
  ["CCOCCOc1ccc(C[C@H]2CN(CC(=O)[O-])CCN(CC(=O)[O-])CCN(CC(=O)O)CCN2CC(=O)[O-])cc1.[Gd+3] [Example 4]", ">738 mM"],
  ["CCOc1ccc(CC2CN(CC(=O)[O-])CCN(CC(=O)[O-])CCN(CC(=O)O)CCN2CC(=O)[O-])cc1.[Gd+3] (single isomer, unassigned; diastereomer 2) [Example 9]", ">145 mM"],
  ["CCOCCOCCOCCOc1ccc(C[C@H]2CN(CC(=O)[O-])CCN(CC(=O)[O-])CCN(CC(=O)O)CCN2CC(=O)[O-])cc1.[Gd+3] [Example 5]", ">284 mM"],
  ["CCOc1ccc(CC(CN(CCN(CC(=O)[O-])CC(=O)[O-])CC(=O)[O-])N(CC(=O)[O-])CC(=O)[O-])cc1.[Gd+3].[Na+].[Na+] (stereo not shown) [RC1, gadoxetate disodium]", ">250 mM"]
]}

---

Documented Log P across a set of compounds
experiment: Partition coefficient (log P butanol/buffer); format: physicochemical; conditions: 50 mM Tris-HCl, pH 7.4, 10 μM, room temperature

{"columns": ["compound", "Log P"],
 "data": [
  ["CCOc1ccc(C[C@H]2CN(CC(=O)[O-])CCN(CC(=O)[O-])CCN(CC(=O)O)CCN2CC(=O)[O-])cc1.[Gd+3] (single isomer, unassigned; stereoisomer 1) [Example 10]", "−1.34"],
  ["COCCOCCOCCOc1ccc(C[C@H]2CN(CC(=O)[O-])CCN(CC(=O)[O-])CCN(CC(=O)O)CCN2CC(=O)[O-])cc1.[Gd+3]", "−2.12"],
  ["CCOc1ccc(CC2CN(CC(=O)[O-])CCN(CC(=O)[O-])CCN(CC(=O)O)CCN2CC(=O)[O-])cc1.[Gd+3] (stereo not drawn) [Example 7]", "−1.32"],
  ["CCOc1ccc(CC(CN(CCN(CC(=O)[O-])CC(=O)[O-])CC(=O)[O-])N(CC(=O)[O-])CC(=O)[O-])cc1.[Gd+3].[Na+].[Na+] (stereo not drawn) [RC1, gadoxetate disodium]", "−2.12"],
  ["CCOCCOCCOCCOc1ccc(C[C@H]2CN(CC(=O)[O-])CCN(CC(=O)[O-])CCN(CC(=O)O)CCN2CC(=O)[O-])cc1.[Gd+3]", "−1.74"],
  ["CCCCOc1ccc(C[C@H]2CN(CC(=O)[O-])CCN(CC(=O)[O-])CCN(CC(=O)O)CCN2CC(=O)[O-])cc1.[Gd+3] (single isomer, unassigned; stereoisomer 1)", "−0.45"],
  ["COCCOCCOCCOc1ccc(C[C@@H]2CN(CC(=O)[O-])CCN(CC(=O)[O-])CCN(CC(=O)O)CCN2CC(=O)[O-])cc1.[Gd+3]", "−2.05"],
  ["CCOCCOCCOc1ccc(C[C@H]2CN(CC(=O)[O-])CCN(CC(=O)[O-])CCN(CC(=O)O)CCN2CC(=O)[O-])nc1.[Gd+3]", "−1.96"],
  ["CCOCCOCCOc1ccc(C[C@H]2CN(CC(=O)[O-])CCN(CC(=O)[O-])CCN(CC(=O)O)CCN2CC(=O)[O-])cc1.[Gd+3]", "−1.52"]
]}
